Origin of measurements: patent US10981917B2

- Subject Of Test: PRS (prolyl-tRNA synthetase) protein, PRS portion of EPRS (Homo sapiens (Human), UniProt P07814)
- Sequence (P07814 1007-1512): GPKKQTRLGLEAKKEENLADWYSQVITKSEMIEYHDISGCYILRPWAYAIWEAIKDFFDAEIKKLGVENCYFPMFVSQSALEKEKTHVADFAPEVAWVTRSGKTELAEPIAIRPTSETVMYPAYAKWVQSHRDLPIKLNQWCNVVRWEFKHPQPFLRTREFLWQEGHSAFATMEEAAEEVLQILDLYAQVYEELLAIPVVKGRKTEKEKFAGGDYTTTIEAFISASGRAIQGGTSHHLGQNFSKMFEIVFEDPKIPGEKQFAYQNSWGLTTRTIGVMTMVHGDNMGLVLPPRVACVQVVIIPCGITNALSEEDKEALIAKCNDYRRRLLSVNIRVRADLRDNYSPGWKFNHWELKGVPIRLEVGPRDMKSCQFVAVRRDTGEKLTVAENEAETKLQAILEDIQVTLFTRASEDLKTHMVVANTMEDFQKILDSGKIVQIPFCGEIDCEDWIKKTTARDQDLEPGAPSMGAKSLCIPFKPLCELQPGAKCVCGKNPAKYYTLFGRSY
pIC50: −log10 of the molar value.
Please go through the items and note down their pIC50.

O[C@H]1CCCN[C@@H]1/C=C/Cn1cnc2c(Cl)c(Cl)ccc21: ≥ 7.00
COc1ccc2ncn(CCC[C@H]3NCCC[C@@H]3O)c2c1Cl: 6.30 to 7.00

Please report pIC50 for every entry that follows.
1. COc1cc2ncn(CCC[C@H]3NCCC[C@@H]3O)c2cc1F
2. O[C@H]1CCCN[C@@H]1CCCn1cnc2ccc(Cl)nc21

Result:
1: ≤ 6.30; 2: ≤ 6.30

====

Please go through the items and note down their IC50.
- Subject Of Test: PRS (prolyl-tRNA synthetase) protein, PRS portion of EPRS (Homo sapiens (Human), UniProt P07814)

Completed entries (count: 5):
O[C@H]1CCCN[C@@H]1CCCn1cnc2cc(C(F)(F)F)cc(Br)c21 [Example 71]: 100 to 500 nM
O[C@H]1CCCN[C@@H]1/C=C/Cn1cnc2c(F)cc(F)cc21 [Example 179]: 100 to 500 nM
Cc1c(Cl)cnc2c1ncn2CCC[C@H]1NCCC[C@@H]1O [Example 131]: 100 to 500 nM
O[C@H]1CCCN[C@H]1CCCn1cnc2c(Cl)c(Cl)ccc21 [Example 41]: ≥ 500 nM
O[C@H]1CCCN[C@@H]1CCCn1cnc2cccc(-c3ccc(F)cc3)c21 [Example 28]: 100 to 500 nM

Please report IC50 for every entry that follows.
1. N#Cc1nc(-c2cc(Cl)cc3ncn(CCC[C@H]4NCCC[C@@H]4O)c23)cs1 [Example 105]
2. Cc1c(F)ccc2c1ncn2C/C=C/[C@H]1NCCC[C@@H]1O [Example 167]
3. O[C@H]1CCCN[C@@H]1CCCn1cnc2ccc(-c3ccc(F)cc3)cc21 [Example 25]
4. COC(=O)c1cn(CCC[C@H]2NCCC[C@@H]2O)c2c(Cl)cccc12 [Example 154]
5. O[C@H]1CCCN[C@@H]1CCCn1nc(-c2cnn(C(F)F)c2)c2cc(Cl)ccc21 [Example 157]
6. O[C@H]1CCCN[C@@H]1CCCn1cnc2cc(Cl)cc(-c3cnn(CCF)c3)c21 [Example 112]
7. Cc1ccc2c(nc(CO)n2CCC[C@H]2NCCC[C@@H]2O)c1C [Example 146]
8. O[C@H]1CCCN[C@@H]1CCCn1cnc2cccc(Br)c21 [Example 5]

Result:
1: ≥ 500 nM; 2: 100 to 500 nM; 3: ≥ 500 nM; 4: 100 to 500 nM; 5: ≥ 500 nM; 6: 100 to 500 nM; 7: ≥ 500 nM; 8: 100 to 500 nM

Please report IC50 for every entry that follows.
1. COC(=O)c1cc(Br)c2c(c1)ncn2CCC[C@H]1NCCC[C@@H]1O [Example 68]
2. Cn1c(=O)c2c(ncn2CCC[C@H]2NCCC[C@@H]2O)n(C)c1=O [Example 162]
3. Cc1cc(-c2cc(Cl)cc3ncn(CCC[C@H]4NCCC[C@@H]4O)c23)c(C)s1 [Example 114]
4. COC(=O)c1cn(C/C=C/[C@H]2NCCC[C@@H]2O)c2cc(Cl)ccc12 [Example 211]
5. CC(C)n1cc(-c2cc(Cl)cc3ncn(CCC[C@H]4NCCC[C@@H]4O)c23)cn1 [Example 108]

Result:
≥ 500 nM
≥ 500 nM
100 to 500 nM
≥ 500 nM
100 to 500 nM

====

Please go through the items and note down their pIC50.
- Subject Of Test: PRS (prolyl-tRNA synthetase) protein, PRS portion of EPRS (Homo sapiens (Human), UniProt P07814)
pIC50: −log10 of the molar value.

O[C@H]1CCCN[C@@H]1CCCn1nc(C2CC2)c2cc(Cl)ccc21 [Example 155]: ≤ 6.30

Please report pIC50 for every entry that follows.
1. O=C(O)c1cn(C/C=C/[C@H]2NCCC[C@@H]2O)c2c(Br)cccc12 [Example 203]
2. COC(=O)c1cn(CCC[C@H]2NCCC[C@@H]2O)c2cc(Cl)ccc12 [Example 153]

Result:
["≤ 6.30", "6.30 to 7.00"]

====

Endpoint: IC50. System: PRS (prolyl-tRNA synthetase) protein, PRS portion of EPRS (Homo sapiens (Human)). Items follow.

O[C@H]1CCCN[C@@H]1CCCn1cnc2nc(Cl)c(Cl)cc21: 0.1 to 0.5 µM
O[C@H]1CCCN[C@@H]1CCCn1cnc2c(N3CCOCC3)ncnc21: ≥ 0.5 µM
CCN(C)c1ncnc2c1ncn2CCC[C@H]1NCCC[C@@H]1O: ≥ 0.5 µM
O[C@H]1CCCN[C@@H]1CCCn1cnc2cc(Cl)cc(N3CCCC3)c21: ≤ 0.1 µM

Problem: Request the reported IC50 associated with `O[C@H]1CCCN[C@@H]1CCCn1cnc2ccc(Cl)c(Cl)c21`
Result: 0.1 to 0.5 µM

====

Endpoint: IC50. System: PRS (prolyl-tRNA synthetase) protein, PRS portion of EPRS (Homo sapiens (Human)). Items follow.

Completed entries (count: 10):
Cc1cc(Cl)cc2c1ncn2CCC[C@H]1NCCC[C@@H]1O: ≤ 100 nM
O[C@H]1CCCN[C@@H]1CCCn1cnc2c(N3CCCC3)cccc21: ≥ 500 nM
Nc1nc2cc(Cl)c(Cl)cc2n1CCC[C@H]1NCCC[C@@H]1O: 100 to 500 nM
Cn1cc(-c2cc(Cl)cc3ncn(CCC[C@H]4NCCC[C@@H]4O)c23)cn1: ≤ 100 nM
O[C@H]1CCCN[C@@H]1/C=C/Cn1ncc2ccc(Cl)cc21: ≥ 500 nM
COC(=O)c1cn(C/C=C/[C@H]2NCCC[C@@H]2O)c2c(Br)cccc12: 100 to 500 nM
Cc1c(Br)ccc2c1ncn2C/C(F)=C/[C@H]1NCCC[C@@H]1O: ≥ 500 nM
O[C@H]1CCCN[C@@H]1/C=C/Cn1cnc2nc(Br)ccc21: ≥ 500 nM
O[C@H]1CCCN[C@@H]1CCCn1cnc2cc(Cl)c(Br)cc21: 100 to 500 nM
COC(=O)c1cc(-c2cc(Cl)cc3ncn(CCC[C@H]4NCCC[C@@H]4O)c23)cs1: ≤ 100 nM

Please report IC50 for every entry that follows.
1. O[C@H]1CCCN[C@@H]1CCCn1cnc2cc(Cl)cc(Cl)c21
2. O[C@H]1CCCN[C@@H]1/C=C/Cn1cnc2ccc(-c3cccc(C(F)(F)F)c3)cc21
3. O[C@H]1CCCN[C@@H]1/C=C/Cn1cnc2ccc(-c3cccc(F)c3)cc21
4. Cc1ccc2c(ncn2C/C=C/[C@H]2NCCC[C@@H]2O)c1Cl

Result:
≤ 100 nM
100 to 500 nM
100 to 500 nM
100 to 500 nM

====

Please go through the items and note down their pIC50.
- Subject Of Test: PRS (prolyl-tRNA synthetase) protein, PRS portion of EPRS (Homo sapiens (Human), UniProt P07814)
pIC50: −log10 of the molar value.

Completed entries (count: 2):
Oc1nc2ccccc2n1CCC[C@H]1NCCC[C@@H]1O: ≤ 6.30
O=c1[nH]c2ccc(Br)cc2n1CCC[C@H]1NCCC[C@@H]1O: ≤ 6.30

Please report pIC50 for every entry that follows.
1. O[C@H]1CCCN[C@@H]1CCCn1cnc2c(Cl)c(-c3cccc(Cl)c3)cnc21
2. Cc1c(Cl)ccc2c1ncn2C/C=C/[C@H]1NCCC[C@@H]1O
3. Cc1c(Cl)ccc2c1ncn2CCC[C@H]1NCCC[C@@H]1O
4. Cc1c(Br)cnc2c1ncn2CCC[C@H]1NCCC[C@@H]1O
5. O=[N+]([O-])c1c(Br)ccc2c1ncn2C/C=C/[C@H]1NCCC[C@@H]1O
6. O[C@@H]1CCCN[C@H]1CCCn1cnc2c(Cl)c(Cl)ccc21
7. O[C@H]1CCCN[C@@H]1CCCn1cnc2cc(Br)ncc21

Result:
1: ≤ 6.30; 2: 6.30 to 7.00; 3: ≥ 7.00; 4: 6.30 to 7.00; 5: ≤ 6.30; 6: ≤ 6.30; 7: ≤ 6.30

Please report pIC50 for every entry that follows.
1. O[C@H]1CCCN[C@@H]1CCCn1cnc2cccc(F)c21
2. Cc1sccc1-c1cc(Cl)cc2ncn(CCC[C@H]3NCCC[C@@H]3O)c12

Result:
["≤ 6.30", "6.30 to 7.00"]

Please report pIC50 for every entry that follows.
1. COC(=O)c1cn(C/C=C/[C@H]2NCCC[C@@H]2O)c2c(Cl)cccc12
2. O[C@H]1CCCN[C@@H]1CCCn1cnc2cccc(-c3ccccc3F)c21

Result:
["≤ 6.30", "≤ 6.30"]

====

Endpoint: IC50. System: PRS (prolyl-tRNA synthetase) protein, PRS portion of EPRS (Homo sapiens (Human)). Items follow.

C/C(=C\[C@H]1NCCC[C@@H]1O)Cn1cnc2cc(Cl)c(Cl)cc21: ≥ 500 nM
O[C@H]1CCCN[C@@H]1CCCn1cnc2cc(Cl)cc(-c3cnc(C4CC4)s3)c21: 100 to 500 nM
Cc1c(Cl)ccc2c1ncn2CC#C[C@H]1NCCC[C@@H]1O: ≥ 500 nM
Cc1c(Br)ccc2c1ncn2CC#C[C@H]1NCCC[C@@H]1O: ≥ 500 nM
O[C@H]1CCCN[C@@H]1/C=C/Cn1cnc2cc(Br)c(Br)cc21: 100 to 500 nM

Please report IC50 for every entry that follows.
1. COC(=O)c1cn(C/C=C/[C@H]2NCCC[C@@H]2O)c2ccc(Br)cc12
2. Cc1cc(Cl)cc2c1ncn2C/C=C/[C@H]1NCCC[C@@H]1O
3. O[C@H]1CCCN[C@@H]1/C=C/Cn1cnc2cc(C(F)(F)F)cc(Cl)c21
4. Cc1ccc2c(c1)ncn2CCC[C@H]1NCCC[C@@H]1O

Result:
1: ≥ 500 nM; 2: 100 to 500 nM; 3: 100 to 500 nM; 4: ≥ 500 nM
